Origin of values: patent US20160264649A1

In this section, each of the binders is paired with its reported IC50 (neutralization).
- Target Of Assay: HIV-1 Env of isolate MGRM-D-003 (subtype D) (HIV-1)
- Experiment Notes: cell-based or functional assay
The answer is to be given in µg/mL; state only the numeric part.

• PGT-126 (antibody, V domains shown) VH: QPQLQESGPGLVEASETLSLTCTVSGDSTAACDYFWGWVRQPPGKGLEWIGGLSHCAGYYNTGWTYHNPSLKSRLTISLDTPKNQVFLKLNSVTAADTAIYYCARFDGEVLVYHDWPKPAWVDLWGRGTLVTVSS VL: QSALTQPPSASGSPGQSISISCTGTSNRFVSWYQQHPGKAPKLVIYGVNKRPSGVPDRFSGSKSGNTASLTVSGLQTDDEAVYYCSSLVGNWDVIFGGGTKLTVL = 0.021

# ---- query binder ----
For the binder shown here, PGT-128 (antibody, V domains shown) VH: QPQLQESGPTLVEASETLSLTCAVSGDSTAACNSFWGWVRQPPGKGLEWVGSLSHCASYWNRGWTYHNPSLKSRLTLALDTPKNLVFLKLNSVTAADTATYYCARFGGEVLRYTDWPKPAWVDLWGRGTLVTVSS VL: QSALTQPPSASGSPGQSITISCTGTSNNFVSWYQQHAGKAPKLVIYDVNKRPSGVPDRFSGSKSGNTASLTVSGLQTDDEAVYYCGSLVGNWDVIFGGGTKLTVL , give the reported IC50 (neutralization). 0.019
